Data provenance: PubChem BioAssay (EPA / NIEHS)

- ASSAY_NAME: TOX21_p53_BLA_p4_viability: Viability Assessment in the Tox21 HCT-116 p53 Agonism Beta-lactamase Assay, Phase 4 (AID 2283597);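 also: hits lower the luminescence signal meaning cytotoxicity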
Results filed as inconclusive are left out. Active and inactive are the calls of the source. The calls were made as follows: active = hit-call score of the fitted dose curve at least 0.9, where 1 is the maximum; inconclusive = response in the unintended direction; inactive = score below 0.9.
Outcome codes: active, inactive

>>> print(df.to_string())
                                    molecule  group_label
 0              OCC(S)CS (centres undefined)     inactive
 1              COc1cc(C)nc(-n2nc(C)cc2OC)n1     inactive
 2               CCOc1cc(OCC)c(C(C)=O)cc1OCC     inactive
 3  CCCCCCCCCC/C=C/C1CC(=O)OC1=O (centres undefined)     inactive
 4          O=C(O)COc1nn(Cc2ccccc2)c2ccccc12     inactive
 5  CCCCC[C@H](O)/C=C/[C@@H]1[C@H]2C/C(=C/CCCC(=O)O)O[C@H]2C[C@H]1O     inactive
 6  CCCCCCCN(CC)CCCC(O)c1ccc(NS(C)(=O)=O)cc1 (centres undefined)     inactive
 7                     C[C@@H]1CCC[C@H](C)N1     inactive
 8                         CCOc1ccccc1C(N)=O     inactive
 9  CC1(C)S[C@@H]2[C@H](NC(=O)[C@H](N)c3ccccc3)C(=O)N2[C@H]1C(=O)OCOC(=O)[C@@H]1N2C(=O)C[C@H]2S(=O)(=O)C1(C)C     inactive
10  COc1cc(/C=C/C(=O)O[C@H]2CC[C@]34C[C@]35CC[C@]3(C)[C@@H]([C@H](C)CCC=C(C)C)CC[C@@]3(C)[C@@H]5CC[C@H]4C2(C)C)ccc1O     inactive
11  O=C(NOCC1CC1)c1ccc(F)c(F)c1Nc1ccc(I)cc1Cl       active
12  Cn1c(=O)c2c(ncn2CC(O)CO)n(C)c1=O (centres undefined)     inactive
13  CCC(=O)c1ccc2c(c1)N(CCCN1CCN(CCO)CC1)c1ccccc1S2       active
14          Nc1nnc(-c2ccc([N+](=O)[O-])o2)o1     inactive
15  CCOC(=O)C1=C(C)NC(C)=C(C(=O)OC)C1c1cccc([N+](=O)[O-])c1 (centres undefined)     inactive
16                 CCCCCCCCOc1ccc(C(=O)O)cc1     inactive
17                COc1ccc2cc(CCC(C)=O)ccc2c1     inactive
18  CCOC(=O)[C@H](CCc1ccccc1)N[C@H]1CCCN2CCC[C@@H](C(=O)O)N2C1=O     inactive
19              COc1ccc(C=CC(=O)OCCC(C)C)cc1     inactive
20       CC(O)C(CO)C(C)O (centres undefined)     inactive
21                     N[C@H](CC(=O)O)C(=O)O     inactive
22                       O=c1[nH]cnc2ccccc12     inactive
23                      CCCCCC(=Cc1ccccc1)CO     inactive
